Ref: paper PMC8705538

- MEASUREMENT_DESCRIPTION: Cytotoxicity, neutral red uptake, HepG2
- Format: cell-based
- ASSAY_CONDITIONS: human
Readings of CC50 at 48 h for the listed compounds

SMILES_CODE | TEST_RESULT
CCNC(=O)NCCSC[C@H]1O[C@@H](n2cnc3c(N)ncnc32)[C@H](O)[C@@H]1O | > 100 µM
CSC[C@H]1O[C@@H](n2cnc3c(N)ncnc32)[C@H](O)[C@@H]1O | > 200 µM

Please examine the following record next.
Exercise: Please give the measured CC50 at 48 h for this compound: Cc1ccc(S(=O)(=O)OC[C@H]2O[C@@H](n3cnc4c(N)ncnc43)[C@H](O)[C@@H]2O)cc1
Solution: > 200 µM
